- Tested on: S.aureus FDA209P
- protocol: MIC by agar plate dilution method
- Type: cell-based
- condition-label: Staphylococcus aureus, FDA209P, in vitro, read-out: MIC
assay-readout: MIC (µg/mL)
Give a bare numeral; the unit µg/mL is implied.

Prompt: What measured MIC goes with CC1Cc2c(N3CCC(N)C3)c(F)cc3c(=O)c(C(=O)O)cn1c23 (single isomer, unassigned; (+)) [Example 17] ?
Completion: 0.2

Prompt: What measured MIC goes with CC1COc2c(N3CCN(C)CC3)c(F)cc3c(=O)c(C(=O)O)cn1c23 (centres unmarked) [Test Compound G, reference compound] ?
Completion: 0.2

Prompt: What measured MIC goes with CC1CN(c2c(F)cc3c(=O)c(C(=O)O)cn4c3c2CC4C)CCN1.Cl (single isomer, unassigned; (+)) [Example 8] ?
Completion: 0.2

Prompt: What measured MIC goes with CC1Cc2c(N3CCN(C)CC3)c(F)cc3c(=O)c(C(=O)O)cn1c23 (racemic) [Test Compound E, reference compound] ?
Completion: 0.2

Prompt: What measured MIC goes with CC1CN(c2c(Cl)cc3c(=O)c(C(=O)O)cn4c3c2CC4C)CCN1.Cl (single isomer, unassigned; (+)) [Example 11] ?
Completion: 0.39

---

- protocol: Ratio of dissolution to water (water solubility)
- condition-label: Ratio of dissolution to water, at 20 °C
Counter-ions that a name gives are not always drawn.
Please go through the items and note down their solubility.
Give a bare numeral; the unit mg/mL is implied.

Prompt: What measured solubility goes with CC1CN(c2c(F)cc3c(=O)c(C(=O)O)cn4c3c2CC4C)CCN1 (single isomer, unassigned; (+)) [Example 20] ?
Completion: 143

Prompt: What measured solubility goes with CC(C)NCC1CCN(c2c(F)cc3c(=O)c(C(=O)O)cn4c3c2CC4C)C1 (single isomer, unassigned; (+)) [Example 19, hydrochloride] ?
Completion: 135

Prompt: What measured solubility goes with CC1Cc2c(N3CCN(C)CC3)c(F)cc3c(=O)c(C(=O)O)cn1c23 (single isomer, unassigned) [Example 7 hydrochloride] ?
Completion: 230

---

Please go through the items and note down their solubility.
- protocol: Ratio of dissolution to water (water solubility)
Give a bare numeral; the unit mg/mL is implied.

Prompt: What measured solubility goes with CCNCC1CCN(c2c(F)cc3c(=O)c(C(=O)O)cn4c3c2CC4C)C1.Cl (single isomer, unassigned; (+)) ?
Completion: 195

Prompt: What measured solubility goes with CC1CN(c2c(F)cc3c(=O)c(C(=O)O)cn4c3c2CC4C)CC(C)N1.Cl (single isomer, unassigned; (+)) ?
Completion: 175

---

- protocol: physchem
- condition-label: water, Ratio of dissolution to water
assay-readout: solubility (mg/mL)
Give a bare numeral; the unit mg/mL is implied.

Prompt: What measured solubility goes with CC1Cc2c(N3CCN(C)CC3)c(F)cc3c(=O)c(C(=O)O)cn1c23.Cl (racemic) [Reference Example 3, reference compound] ?
Completion: 12

Prompt: What measured solubility goes with CC1CN(c2c(Cl)cc3c(=O)c(C(=O)O)cn4c3c2CC4C)CCN1.Cl (single isomer, unassigned; (+)) ?
Completion: 231

Prompt: What measured solubility goes with CC1CN(c2c(F)cc3c(=O)c(C(=O)O)cn4c3c2CC4C)CCN1.Cl (racemic) ?
Completion: 152

Prompt: What measured solubility goes with CC1Cc2c(N3CCC(N)C3)c(F)cc3c(=O)c(C(=O)O)cn1c23.Cl (single isomer, unassigned; (+)) [Example 17 hydrochloride] ?
Completion: 158

Origin of the recorded values: patent EP0390135A1
